Some compounds, each annotated with its measured Bliss excess.
# Test system: SW1783 (Low Grade Glioma)
# Protocol Description: Bliss excess, mean over the matrix (fraction); higher = more synergy;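 also: after 72 h of two-drug dosing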

Incoming: What value of measured Bliss excess is listed for Cn1cnc2c(F)c(Nc3ccc(Br)cc3Cl)c(C(=O)NOCCO)cc21 [Selumetinib] + CCN(CCO)CCCOc1ccc2c(Nc3cc(CC(=O)Nc4cccc(F)c4)[nH]n3)ncnc2c1 [AZD2811] (first compound max 10 µM, 7x7, partner max 1 µM) ?
Outgoing: -0.0559

Incoming: What value of measured Bliss excess is listed for Cn1cnc2c(F)c(Nc3ccc(Br)cc3Cl)c(C(=O)NOCCO)cc21 [Selumetinib] + C[C@@H]1COCCN1C2=NC(=NC(=C2)C3(CC3)[S@](=N)(=O)C)C4=C5C=CNC5=NC=C4 [AZD6738] (first compound max 10 µM, 7x7, partner max 10 µM) ?
Outgoing: -0.103

Incoming: What value of measured Bliss excess is listed for COc1nnc2ccc(N3CCC(c4ccc(OCCN5CCN(C)C(=O)[C@H]5C)cc4)CC3)nn12 [AZD5153] + Cn1cnc2c(F)c(Nc3ccc(Br)cc3Cl)c(C(=O)NOCCO)cc21 [Selumetinib] (first compound max 1 µM, 7x7, partner max 10 µM) ?
Outgoing: -0.0214

Incoming: What value of measured Bliss excess is listed for CN(C)CCCOc1ccc(-c2ccc3ncc4c(c3c2)n(C2CCOCC2)c(=O)n4C)cn1 [AZD0156] + CCN(CCO)CCCOc1ccc2c(Nc3cc(CC(=O)Nc4cccc(F)c4)[nH]n3)ncnc2c1 [AZD2811] (first compound max 1 µM, 7x7, partner max 1 µM) ?
Outgoing: -0.0452

Incoming: What value of measured Bliss excess is listed for CN(CCO)CC[C@H](CSc1ccccc1)Nc1ccc(S(=O)(=O)NC(=O)c2ccc(N3CCC([C@@H](O)c4ccccc4-c4ccc(Cl)cc4)CC3)cc2)cc1S(=O)(=O)C(F)(F)F [AZD4320] + CC(=O)O[C@H]1C(=O)[C@@]2(C)[C@H]([C@H](OC(=O)c3ccccc3)[C@]3(O)C[C@H](OC(=O)[C@H](O)[C@@H](NC(=O)c4ccccc4)c4ccccc4)C(C)=C1C3(C)C)[C@]1(OC(C)=O)CO[C@@H]1C[C@@H]2O [Paclitaxel] (first compound max 1 µM, 7x7, partner max 3 µM) ?
Outgoing: 0.0754

Incoming: What value of measured Bliss excess is listed for CN(CCO)CC[C@H](CSc1ccccc1)Nc1ccc(S(=O)(=O)NC(=O)c2ccc(N3CCC([C@@H](O)c4ccccc4-c4ccc(Cl)cc4)CC3)cc2)cc1S(=O)(=O)C(F)(F)F [AZD4320] + Nc1ccn([C@@H]2O[C@H](CO)[C@@H](O)C2(F)F)c(=O)n1 [Gemcitabine] (first compound max 1 µM, 7x7, partner max 0.3 µM) ?
Outgoing: 0.0546

----------
Some compounds, each annotated with its measured Bliss excess.
# Tested on: SW1990 (Pancreatic Carcinoma)
# Protocol Description: Bliss excess, mean over the matrix (fraction); higher = more synergy
// return just the number, without any unit appended

// worked examples, Bliss excess included
{"Compound": "CC1(C)CCC(CN2CCN(c3ccc(C(=O)NS(=O)(=O)c4ccc(NCC5CCOCC5)c([N+](=O)[O-])c4)c(Oc4cnc5[nH]ccc5c4)c3)CC2)=C(c2ccc(Cl)cc2)C1 [Venetoclax] + CCN(CCO)CCCOc1ccc2c(Nc3cc(CC(=O)Nc4cccc(F)c4)[nH]n3)ncnc2c1 [AZD2811] (first compound max 1 µM, 7x7, partner max 1 µM)", "Test Target": "SW1990 (Pancreatic Carcinoma)", "Reported Measurement": 0.0024}
{"Compound": "CN(CCO)CC[C@H](CSc1ccccc1)Nc1ccc(S(=O)(=O)NC(=O)c2ccc(N3CCC([C@@H](O)c4ccccc4-c4ccc(Cl)cc4)CC3)cc2)cc1S(=O)(=O)C(F)(F)F [AZD4320] + C=CCn1c(=O)c2cnc(Nc3ccc(N4CCN(C)CC4)cc3)nc2n1-c1cccc(C(C)(C)O)n1 [AZD1775] (first compound max 1 µM, partner max 1 µM)", "Test Target": "SW1990 (Pancreatic Carcinoma)", "Reported Measurement": 0.0307}
{"Compound": "O=C(c1cc(Cc2n[nH]c(=O)c3ccccc23)ccc1F)N1CCN(C(=O)C2CC2)CC1 [Olaparib] + CN(CC[C@H](CSC1=CC=CC=C1)NC2=C(C=C(C=C2)S(=O)(=O)NC(=O)C3=CC=C(C=C3)N4CCC(CC4)[C@H](C5=CC=CC=C5C6=CC=C(C=C6)Cl)O)S(=O)(=O)C(F)(F)F)CCO [AZD4320] (first compound max 10 µM, 7x7, partner max 1 µM)", "Test Target": "SW1990 (Pancreatic Carcinoma)", "Reported Measurement": -0.0818}
{"Compound": "COc1nnc2ccc(N3CCC(c4ccc(OCCN5CCN(C)C(=O)[C@H]5C)cc4)CC3)nn12 [AZD5153] + CC1(C)CCC(CN2CCN(c3ccc(C(=O)NS(=O)(=O)c4ccc(NCC5CCOCC5)c([N+](=O)[O-])c4)c(Oc4cnc5[nH]ccc5c4)c3)CC2)=C(c2ccc(Cl)cc2)C1 [Venetoclax] (first compound max 1 µM, 7x7, partner max 1 µM)", "Test Target": "SW1990 (Pancreatic Carcinoma)", "Reported Measurement": -0.0448}
{"Compound": "COc1cccc(OCCCN)c1-c1cc(Nc2cnc(C#N)cn2)n[nH]1 [Prexasertib] + CCc1c2c(nc3ccc(O)cc13)-c1cc3c(c(=O)n1C2)COC(=O)[C@]3(O)CC [SN-38] (first compound max 1 µM, 7x7, partner max 0.3 µM)", "Test Target": "SW1990 (Pancreatic Carcinoma)", "Reported Measurement": -0.0551}

Let us examine a further case.
Incoming: Can you look up Bliss excess on SW1990 (Pancreatic Carcinoma) for NC1(C(=O)N[C@@H](CCO)c2ccc(Cl)cc2)CCN(c2ncnc3[nH]ccc23)CC1 [Capivasertib] + CC(=O)c1c(C)c2cnc(Nc3ccc(N4CCNCC4)cn3)nc2n(C2CCCC2)c1=O [Palbociclib] (first compound max 10 µM, 7x7, partner max 10 µM) ?
Outgoing: -0.0404

----------
# System: ES7 (Ewing's Sarcoma)
# Protocol Description: Bliss excess, mean over the matrix (fraction); higher = more synergy
Endpoint: Bliss excess

// worked examples, Bliss excess included
{"Molecule": "CN(C)CCCOc1ccc(-c2ccc3ncc4c(c3c2)n(C2CCOCC2)c(=O)n4C)cn1 [AZD0156] + C[C@@H]1COCCN1C2=NC(=NC(=C2)C3(CC3)[S@](=N)(=O)C)C4=C5C=CNC5=NC=C4 [AZD6738] (first compound max 1 µM, 7x7, partner max 10 µM)", "Bliss excess": 0.0225}
{"Molecule": "Cc1nc(-c2cn3c(n2)-c2ccc(-c4cnn(C(C)(C)C(N)=O)c4)cc2OCC3)n(C(C)C)n1 [Taselisib] + O=C(Nc1ccc2[nH]nc(-c3ccncc3)c2c1)[C@@H]1CCN(CC(=O)N2CCN(c3ccc(-c4ncccn4)cc3)CC2)C1 [SCH772984] (first compound max 10 µM, 7x7, partner max 5 µM)", "Bliss excess": 0.036}

Let us examine a further case.
Incoming: Can you look up Bliss excess on ES7 (Ewing's Sarcoma) for COc1cc2c(cc1OCCCCCOc1cc3c(cc1OC)C(=O)N1C=C(C)C[C@H]1C=N3)N=C[C@@H]1CC(C)=CN1C2=O [SG3199] + O=C(c1cc(Cc2n[nH]c(=O)c3ccccc23)ccc1F)N1CCN(C(=O)C2CC2)CC1 [Olaparib] (first compound max 0.001 µM, 7x7, partner max 10 µM) ?
Outgoing: 0.0011

----------
# Test system: EM-2 (Chronic Myelogenous Leukemia)
# Protocol Description: Bliss excess, mean over the matrix (fraction); higher = more synergy
Some molecules, each annotated with its measured Bliss excess.
// return just the number, without any unit appended

{"Molecule": "CC(=O)Nc1cccc(-n2c(=O)n(C3CC3)c(=O)c3c(Nc4ccc(I)cc4F)n(C)c(=O)c(C)c32)c1 [Trametinib] + Cc1nc(-c2cn3c(n2)-c2ccc(-c4cnn(C(C)(C)C(N)=O)c4)cc2OCC3)n(C(C)C)n1 [Taselisib] (first compound max 1 µM, 7x7, partner max 10 µM)", "Reported Measurement": 0.319}
{"Molecule": "NC1(C(=O)N[C@@H](CCO)c2ccc(Cl)cc2)CCN(c2ncnc3[nH]ccc23)CC1 [Capivasertib] + CC(=O)c1c(C)c2cnc(Nc3ccc(N4CCNCC4)cn3)nc2n(C2CCCC2)c1=O [Palbociclib] (first compound max 10 µM, 7x7, partner max 10 µM)", "Reported Measurement": -0.0552}
{"Molecule": "NC1(C(=O)N[C@@H](CCO)c2ccc(Cl)cc2)CCN(c2ncnc3[nH]ccc23)CC1 [Capivasertib] + Cn1cnc2c(F)c(Nc3ccc(Br)cc3Cl)c(C(=O)NOCCO)cc21 [Selumetinib] (first compound max 10 µM, 7x7, partner max 10 µM)", "Reported Measurement": 0.0766}

Let us examine a further case.
Incoming: What value of measured Bliss excess is listed for COc1cccc(OCCCN)c1-c1cc(Nc2cnc(C#N)cn2)n[nH]1 [Prexasertib] + C[C@@H]1COCCN1C2=NC(=NC(=C2)C3(CC3)[S@](=N)(=O)C)C4=C5C=CNC5=NC=C4 [AZD6738] (first compound max 1 µM, 7x7, partner max 10 µM) ?
Outgoing: -0.0344
